target: Protein deacetylase HDAC6 (Homo sapiens) (UniProt Q9UBN7); settings: at 10 µM
Sequence (Q9UBN7 whole entry): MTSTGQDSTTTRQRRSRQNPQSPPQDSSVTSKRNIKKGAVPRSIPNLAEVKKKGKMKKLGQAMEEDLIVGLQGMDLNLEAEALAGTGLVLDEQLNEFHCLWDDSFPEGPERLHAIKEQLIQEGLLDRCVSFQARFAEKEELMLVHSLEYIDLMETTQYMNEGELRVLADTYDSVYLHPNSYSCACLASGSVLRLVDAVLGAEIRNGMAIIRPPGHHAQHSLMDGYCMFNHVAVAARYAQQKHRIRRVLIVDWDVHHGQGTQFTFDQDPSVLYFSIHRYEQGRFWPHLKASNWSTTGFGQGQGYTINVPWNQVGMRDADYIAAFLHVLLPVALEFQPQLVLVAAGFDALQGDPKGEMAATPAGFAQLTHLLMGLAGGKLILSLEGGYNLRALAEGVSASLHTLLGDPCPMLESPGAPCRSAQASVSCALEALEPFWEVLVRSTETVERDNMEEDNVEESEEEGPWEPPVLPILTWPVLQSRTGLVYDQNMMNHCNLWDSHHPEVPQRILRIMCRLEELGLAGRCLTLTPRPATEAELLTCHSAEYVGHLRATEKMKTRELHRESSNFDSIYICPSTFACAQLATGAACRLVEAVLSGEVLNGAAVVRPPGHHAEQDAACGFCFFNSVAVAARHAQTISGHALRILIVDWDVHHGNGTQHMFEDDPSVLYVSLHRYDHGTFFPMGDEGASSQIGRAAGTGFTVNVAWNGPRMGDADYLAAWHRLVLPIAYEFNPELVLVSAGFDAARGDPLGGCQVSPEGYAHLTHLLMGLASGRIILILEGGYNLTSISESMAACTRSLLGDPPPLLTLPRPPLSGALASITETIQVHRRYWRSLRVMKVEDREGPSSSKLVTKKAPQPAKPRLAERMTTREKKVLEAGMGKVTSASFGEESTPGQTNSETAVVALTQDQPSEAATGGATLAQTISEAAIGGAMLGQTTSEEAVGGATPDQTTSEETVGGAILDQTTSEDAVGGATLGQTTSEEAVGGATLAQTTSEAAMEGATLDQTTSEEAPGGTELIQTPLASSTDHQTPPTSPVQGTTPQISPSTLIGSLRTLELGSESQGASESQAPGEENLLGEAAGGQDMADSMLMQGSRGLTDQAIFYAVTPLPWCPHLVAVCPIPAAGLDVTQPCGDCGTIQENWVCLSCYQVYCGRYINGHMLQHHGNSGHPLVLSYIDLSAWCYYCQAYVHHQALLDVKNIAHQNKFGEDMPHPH
Respond with Satisfied for inhibition values of 90% and above, Not satisfied for values below.

> print(dat)
                                   compound  assigned.label
1     Cn1cc(/C=C2/C(=O)Nc3cccnc32)c2ccccc21       Satisfied
2  COc1ccccc1OCC(O)COC(N)=O (stereo unspecified)   Not satisfied

Next, consider the following compound.
Incoming: Has `Cc1cc(C)c(S(=O)(=O)Nc2cccc(C(F)(F)F)c2)c(C)c1` a recorded inhibition greater than or equal to 90%?
Outgoing: Not satisfied
